Origin of measurements: patent US11976083B2

A collection of compounds and their measured IC50
- TARGET_UNDER_TEST: human PAD4 (Homo sapiens)
- Construct: human PAD4 (NM_012387), A2-P663, was PCR amplified; His-SUMO (N, cleaved yes)
- PROTOCOL_DETAILS: In vitro PAD4 BAEE biochemical assay
- CONDITION_SUMMARY: BAEE substrate 3 mM, 5 nM PAD4, 2 mM calcium chloride; geometric mean of multiple experiments
VALUE_KIND: IC50 (nM)

- COc1cc(C(=O)N2CC[C@@H](OC)[C@@H](N)C2)cc2nc(-c3cc4ccc5nc4n3CCCCCC[C@@](C)(c3ccccn3)C(=O)N[C@@H]5C)n(C)c12 [Example 862]: 78
- COc1cc(C(=O)N2CCC[C@@H](N)C2)cc2nc(-c3cc4ccc5nc4n3CCCCCC(C)(C)C(=O)N[C@@H]5C)n(C)c12 [Example 58]: 77
- COc1cc(C(=O)N2[C@H]3CC[C@@H]2[C@H](N)C3)cc2nc(-c3cc4ccc5nc4n3CCCCCCn3ccc(n3)C(=O)N[C@@H]5C)c(C)n12 [Example 36]: 372
- COc1cc(C(=O)N2CC[C@@H](OC)[C@@H](N)C2)cc2nc(-c3cc4ccc5nc4n3CCCCCCC[C@@H](C(F)(F)F)N[C@@H]5C)n(C)c12 [Example 699]: 640
- COc1cc(C(=O)N2[C@H]3CC[C@@H]2[C@H](N)C3)cc2nc(-c3cc4ccc5cc4n3CCCCCCCC(=O)N3CCC[C@H]53)n(C)c12 [Example 129]: 13
- COc1cc(C(=O)N[C@H]2CNCC[C@@H]2F)cc2nc(-c3cc4ccc5nc4n3CCCCCOC(C)(C)C(=O)N[C@@H]5C)n(C)c12 [Example 19]: 76
- COc1cc(C(=O)N2CC[C@@H](OC(F)F)[C@@H](N)C2)cc2nc(-c3cc4ccc5nc4n3CCCCCc3cc4ccccc4nc3C(=O)N[C@@H]5C)n(C)c12 [Example 732]: 214
- C[C@H]1NC(=O)c2ccc(C(F)F)nc2CCCCCn2c(-c3nc4cc(C(=O)N5C[C@H](N)[C@@H]6CC[C@H]5C6)cc(F)c4n3[C@@H]3C[C@H]3F)cc3ccc1nc32 [Example 776]: 17
- COc1cc(C(=O)N2C[C@H](N)[C@@H]3CC[C@H]2C3)cc2nc(-c3cc4ccc5nc4n3CCCCCc3cc(F)cc(F)c3C(=O)N[C@@H]5C)n(C)c12 [Example 935]: 29
- COc1cc(C(=O)N2[C@H]3CC[C@@H]2[C@H](N)C3)cc2nc(-c3cc4ccc5nc4n3C[C@@H]3C[C@H]3COCCC(=O)N[C@@H]5C)n(C)c12 [Example 218]: 29
- COc1cc(C(=O)N2[C@H]3CC[C@@H]2[C@H](N)C3)cc2nc(-c3cc4ccc5nc4n3CCCCCCCCC(=O)N[C@@H]5C)c(C)n12 [Example 318]: 18

* * *

- TARGET_UNDER_TEST: human PAD4 (Homo sapiens)
- Construct: human PAD4 (NM_012387), A2-P663, was PCR amplified; His-SUMO (N, cleaved yes)
- PROTOCOL_DETAILS: In vitro PAD4 BAEE biochemical assay
- CONDITION_SUMMARY: BAEE substrate 3 mM, 5 nM PAD4, 2 mM calcium chloride; geometric mean of multiple experiments
pIC50: −log10 of the molar value.
VALUE_KIND: pIC50

• CO[C@@H]1CCN(C(=O)c2cc3nc(-c4cc5ccc6nc5n4CCCCC[C@@H]4C[C@H]4C(=O)N[C@@H]6C)n([C@H]4C[C@H]4F)c3cc2F)C[C@@H]1N = 7.44
• COc1cc(C(=O)N2CCC[C@@H](N)C2)cc2nc(-c3cc4ccc5nc4n3CCCCCCCC(=O)N[C@@H]5C)c(C)n12 = 7.44
• COc1cc(C(=O)N2CC[C@@H](OC)[C@@H](N)C2)cc2nc(-c3cc4ccc5nc4n3CCCCC[C@H]3C[C@]3(C)C(=O)N[C@@H]5C)n(C)c12 = 6.64
• COc1cc(C(=O)N2[C@H]3CC[C@@H]2[C@H](N)C3)cc2nc(-c3cc4ccc5nc4n3C/C=C\CCCCC(=O)N[C@@H]5C)c(C)n12 = 7.92
• COc1cc(C(=O)N2C[C@H]3C[C@@H]2[C@@H]3N)cc2nc(-c3cc4ccc5nc4n3CCCCCCC(C)(C)C(=O)N[C@@H]5C)n(C)c12 = 7.15

* * *

- TARGET_UNDER_TEST: human PAD4 (Homo sapiens, UniProt Q9UM07)
- Construct: human PAD4 (NM_012387), A2-P663, was PCR amplified; His-SUMO (N, cleaved yes)
- Sequence (Q9UM07 2-663): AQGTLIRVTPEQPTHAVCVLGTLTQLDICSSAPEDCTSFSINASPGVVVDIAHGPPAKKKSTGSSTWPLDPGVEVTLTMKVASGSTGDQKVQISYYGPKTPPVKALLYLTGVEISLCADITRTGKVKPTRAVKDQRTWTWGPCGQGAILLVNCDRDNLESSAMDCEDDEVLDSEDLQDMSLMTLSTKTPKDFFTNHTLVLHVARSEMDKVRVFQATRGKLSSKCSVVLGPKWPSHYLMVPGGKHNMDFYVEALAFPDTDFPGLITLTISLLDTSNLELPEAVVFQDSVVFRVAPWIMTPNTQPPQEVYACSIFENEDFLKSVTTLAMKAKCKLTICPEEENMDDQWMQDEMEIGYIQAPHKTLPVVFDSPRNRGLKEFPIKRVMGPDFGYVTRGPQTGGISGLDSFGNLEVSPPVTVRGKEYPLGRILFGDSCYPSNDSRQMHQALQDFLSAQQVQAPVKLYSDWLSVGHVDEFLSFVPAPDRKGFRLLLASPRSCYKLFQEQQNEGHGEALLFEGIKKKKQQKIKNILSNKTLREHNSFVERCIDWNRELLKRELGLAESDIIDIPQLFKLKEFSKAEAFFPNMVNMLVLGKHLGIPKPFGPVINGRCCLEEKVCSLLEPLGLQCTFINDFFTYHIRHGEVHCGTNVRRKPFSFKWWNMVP
- PROTOCOL_DETAILS: In vitro PAD4 BAEE biochemical assay
- CONDITION_SUMMARY: BAEE substrate 3 mM, 5 nM PAD4, 2 mM calcium chloride; geometric mean of multiple experiments
pIC50: −log10 of the molar value.
Output Satisfied for pIC50 not less than 7; output Not satisfied otherwise.

• COc1cc(C(=O)N2CCC[C@@H](N)C2)cn2nc(-c3cc4ccc5nc4n3CCCCCCC(C)(C)C(=O)N[C@@H]5C)c(C)c12 = Not satisfied
• COc1cc(C(=O)N2CC[C@@H](OC)[C@@H](N)C2)cc2nc(-c3cc4ccc5nc4n3CCCCCc3cncc(Cl)c3C(=O)N[C@@H]5C)n(C)c12 = Satisfied
• C[C@H]1NC(=O)[C@@H]2C[C@H]2CCCCCn2c(-c3nc4cc(C(=O)N[C@H]5CNCC[C@@H]5F)c(F)cc4n3[C@H]3C[C@H]3C(F)F)cc3ccc1nc32 (single isomer, unassigned) = Satisfied
• C[C@H]1NC(=O)C(C)(C)CCCCCn2c(-c3nc4cc(C(=O)N5C[C@H](N)[C@@H]6CC[C@H]5C6)cc(F)c4n3C3CC3)cc3ccc1nc32 = Satisfied
• COc1cc(C(=O)N2CCC[C@@H](N)C2)cc2nc(-c3cc4ccc5nc4n3C[C@@H]3C[C@H]3CCCCC(=O)N[C@@H]5C)n(C)c12 = Satisfied
• COc1cc(C(=O)N2CCC[C@@H](N)C2)cc2nc(-c3cc4ccc5cc4n3CCCCCCC(C)(C)C(=O)Nc3ncccc3-5)n(C)c12 = Not satisfied
• COc1cc(C(=O)N2[C@H]3CC[C@@H]2[C@H](N)C3)cc2nc(-c3cc4ccc5nc4n3CCCCCC[C@H](C)C(=O)N[C@@H]5C)n(C)c12 = Satisfied
• COc1cc(C(=O)N2[C@H]3CC[C@@H]2[C@H](N)C3)cc2nc(-c3cc4ccc5cc4n3CCCCCCC(C)(C)C(=O)Nc3ccccc3-5)n(C)c12 = Not satisfied
• C[C@H]1NC(=O)[C@@H]2C[C@H]2CCCCCn2c(-c3nc4cc(C(=O)N[C@H]5CNCC[C@@H]5F)c(F)cc4n3C3CC3)cc3ccc1nc32 = Satisfied
• COc1cc(C(=O)N2[C@H]3CC[C@@H]2[C@H](N)C3)cc2nc(-c3cc4ccc5nc4n3C[C@@H]3[C@H](COCCC(=O)N[C@@H]5C)C3(C)C)n(C)c12 (single isomer, unassigned) = Satisfied

* * *

- TARGET_UNDER_TEST: human PAD4 (Homo sapiens)
- Construct: human PAD4 (NM_012387), A2-P663, was PCR amplified; His-SUMO (N, cleaved yes)
- PROTOCOL_DETAILS: In vitro PAD4 BAEE biochemical assay
- CONDITION_SUMMARY: BAEE substrate 3 mM, 5 nM PAD4, 2 mM calcium chloride; geometric mean of multiple experiments
Output class 1 for records whose IC50 is lower than 70 nM, class 0 for records at or above 70 nM.

- COc1cc(C(=O)N2CC[C@@H](OC)[C@@H](N)C2)cc2nc(-c3cc4ccc5nc4n3CCCCCc3ccnc(C)c3C(=O)N[C@@H]5C)n(C)c12 [Example 697]: class 0
- COc1cc(C(=O)N2CCC[C@@H](N)C2)cn2nc(-c3cc4ccc5nc4n3CCCCCCCC(=O)N[C@@H]5C)c(C)c12 [Example 26]: class 0
- C[C@H]1NC(=O)[C@H]2C[C@@H]2CCCCCn2c(-c3nc4cc(C(=O)N[C@H]5CNCC[C@@H]5F)c(F)cc4n3C3CC3)cc3ccc1nc32 [Example 539]: class 0
- COc1cc(C(=O)N[C@H]2CNCCC2(F)F)cc2nc(-c3cc4ccc5nc4n3CCCCCCC(C)(C)C(=O)N[C@@H]5C)n(C)c12 [Example 294]: class 0
- C[C@H]1NC(=O)[C@H]2[C@@H](CCCCCn3c(-c4nc5cc(C(=O)N[C@H]6CNCC[C@@H]6F)c(F)cc5n4C)cc4ccc1nc43)C2(F)F (single isomer, unassigned) [Example 381]: class 1
- COc1cc(C(=O)N2C[C@H](N)[C@@H]3CC[C@H]2C3)cc2nc(-c3cc4ccc5nc4n3CCCCC[C@@H]3C[C@H]3C(=O)N[C@@H]5C)n(C)c12 [Example 444]: class 1
- C[C@H]1NC(=O)c2cc3ccccc3nc2CCCCCn2c(-c3nc4cc(C(=O)N5C[C@H](N)[C@@H]6CC[C@H]5C6)cc(F)c4n3C3CC3)cc3ccc1nc32 [Example 476]: class 1
- COc1cc(C(=O)N2C[C@H](N)[C@@H]3CC[C@H]2C3)cc2nc(-c3cc4ccc5nc4n3CCCCCCCCN(C(C)=O)[C@@H]5C)n(C)c12 [Example 908]: class 0
- COc1cc(C(=O)N[C@H]2CNCC[C@@H]2F)cc2nc(-c3cc4ccc5nc4n3CCCCCC[C@H](OC)C(=O)N[C@@H]5C)n(C)c12 [Example 615]: class 0
- COc1cc(C(=O)N2C[C@H](N)CC[C@@H]2C)cc2nc(-c3cc4ccc5nc4n3CC(F)(F)CCC[C@@H]3C[C@H]3C(=O)N[C@@H]5C)n(C)c12 [Example 849]: class 1
- COc1cc(C(=O)N2[C@H]3CC[C@@H]2[C@H](N)C3)cc2nc(-c3cc4ccc5nc4n3CCCCCCCC(=O)N[C@@H]5C)c(C)n12 [Example 316]: class 1
- COc1cc(C(=O)N2C[C@H](N)[C@@H]3CC[C@H]2C3)cc2nc(-c3cc4ccc5nc4n3CCCCCc3nc(Cl)ccc3C(=O)N[C@@H]5C)n(C)c12 [Example 713]: class 1
- COc1cc(C(=O)N2[C@H]3CC[C@@H]2[C@H](N)C3)cc2nc(-c3cc4ccc5cc4n3CCCC3CCN(CC3)C(=O)c3ccccc3-5)n(C)c12 [Example 101]: class 0
- COc1cc(C(=O)N2CC[C@@H](OC)[C@@H](N)C2)cc2nc(-c3cc4ccc5nc4n3CCCCCC[C@](F)(c3ccccn3)C(=O)N[C@@H]5C)n(C)c12 [Example 869]: class 1
- COc1cc(C(=O)N2[C@H]3CC[C@@H]2[C@H](N)C3)cc2nc(-c3cc4ccc5nc4n3CCCCCCOc3ccccc3C(=O)N[C@@H]5C)c(C)n12 [Example 213]: class 0
- COc1cc(C(=O)N2CCC[C@@H](N)C2)cc2nc(-c3cc4ccc5nc4n3CCCCC[C@H]3C[C@@H]3C(=O)N[C@@H]5C)n(C)c12 [Example 158]: class 0
- COc1cc(C(=O)N2CC[C@@H](OC)[C@@H](N)C2)cc2nc(-c3cc4ccc5nc4n3CC(F)(F)CCC[C@@H]3C[C@@]3(C)C(=O)N[C@@H]5C)n(C)c12 [Example 585]: class 0
- COc1cc(C(=O)N2CC[C@@H](OC)[C@@H](N)C2)cc2nc(-c3cc4ccc5nc4n3CCCCCC[C@@](C)(C(F)(F)F)C(=O)N[C@@H]5C)n(C)c12 [Example 719]: class 0
